Listed here: items and their measured TGI.
system: CCRF-CEM leukemia; assay: NCI tumour cell line growth inhibition, 48 h

Look over these answered cases.
COc1ccc(/C=c2\sc3nnc(CCC(=O)Nc4cccc(C(F)(F)F)c4)n3c2=O)cc1: 90.3 µM
O=[N+]([O-])c1ccc(Oc2cccc(C(F)(F)F)c2)c([N+](=O)[O-])c1: 3.18 µM
Cc1ccc(O)c(-c2cc(-c3ccccc3)nc(/N=C\c3ccccc3)n2)c1: > 100 µM
Cc1cn(C2CC(N=[N+]=[N-])C(CO)O2)c(=O)[nH]c1=O (stereo not given): > 1000 µM
Cc1ccccc1C(=O)NC(O)(C(F)(F)F)C(F)(F)F: > 100 µM
CC(=O)Nc1c(I)c(C(=O)O)c(I)c(N(C)C(C)=O)c1I: > 100 µM
COC(=O)c1ccc(-n2c(C)nc(=O)c(-c3ccccc3)c2C)cc1: > 100 µM
CCOC(=O)c1ncn2c1[nH]c(=O)c1ccccc12: > 100 µM

Could you share which TGI value was measured for O=C(O)c1cccc(S(=O)(=O)NN2C(=O)CSC2c2ccccc2Cl)c1 (stereo not given) ?
> 100 µM

Could you share which TGI value was measured for C=C(C)C1Cc2c(cc(OC)c3c(=O)c4ccccc4n(C)c23)O1 (stereo not given) ?
> 100 µM
